Cited source: the supplement of paper PMC11451515

Listed molecules paired with reported cell viability
- System: NOMO1
- EXPERIMENTAL_DETAILS: cell viability relative to DMSO control; higher = less cytotoxic
- RUN_CONDITIONS: HPLM + 10% dialyzed FBS; 48 h; 0.0632 µM

>>> result("Cc1cn([C@H]2C=C[C@@H](CO)O2)c(=O)[nH]c1=O")
"101%"

Form field - read-out: cell viability; system: NOMO1; submitted item: C[C@H](CCC(=O)O)[C@H]1CCC2C3C[C@H](O)[C@@H]4C[C@H](O)CC[C@]4(C)C3CC[C@@]21C (some centres not stated)
119%

Now consider `OC[C@H]1O[C@H](C[C@@H]1O)N2\C=C(F)/C(=O)NC2=O` and answer again.
51.9%

Moving on to `O=C([O-])C[C@H](O)C[C@H](O)/C=C/c1c(C2CC2)nc2ccccc2c1-c1ccc(F)cc1`
125%

Please answer likewise for C=C1C(=O)[C@@]23C(CC[C@@H]1[C@H]2O)[C@@]12CO[C@]3(O)[C@@H](O)[C@@H]1C(C)(C)CC[C@@H]2O (some centres not stated)
121%

###

- Tested on: P12-Ichikawa
- EXPERIMENTAL_DETAILS: cell viability relative to DMSO control; higher = less cytotoxic
- RUN_CONDITIONS: RPMI 5 mM glucose + 10% dialyzed FBS; 48 h; 0.19 µM
ASSAY_ENDPOINT: cell viability (%)
Give your result in % as a bare value.

Recorded cell viability, per entry:
>>> numeric_value("O=C(Nc1c[nH]nc1-c1nc2cc(CN3CCOCC3)ccc2[nH]1)NC1CC1")
24.8
>>> numeric_value("C[C@]12Cc3cn[nH]c3C[C@@H]1CC[C@@H]1[C@@H]2CC[C@@]2(C)[C@H]1CC[C@]2(C)O")
111
>>> numeric_value("O=C(CCc1ccc(O)cc1)c1c(O)cc(O)cc1O")
98.7
>>> numeric_value("Cc1nn(C)c(COc2ccc(N3CCN([S+](=O)([O-])N(C)C)CC3)cc2)c1-c1cccc2c(CCCOc3cccc4ccccc34)c(C(=O)O)n(CCN3CCOCC3)c12")
115
>>> numeric_value("C[C@@H]1CN(Cc2ccc(F)cc2)[C@@H](C)CN1C(=O)c1cc2c(C(=O)C(=O)N(C)C)cn(C)c2cc1Cl")
130
>>> numeric_value("Cc1cc(OCCC[S+](C)(=O)[O-])cc(C)c1-c1cccc(COc2ccc3c(c2)OC[C@H]3CC(=O)O)c1")
97.7
>>> numeric_value("Cc1ccc(C(=O)Nc2cccc(C(F)(F)F)c2)cc1-c1ccc2nc(NCCN3CCOCC3)ncc2c1")
107
>>> numeric_value("CCN(CCO)CCCOc1ccc2c(Nc3cc(CC(=O)Nc4cccc(F)c4)[nH]n3)ncnc2c1")
68.6
>>> numeric_value("CC(C)N(C[C@H]1O[C@@H](n2cnc3c(N)ncnc32)[C@H](O)[C@@H]1O)[C@H]1C[C@@H](CCc2nc3cc(C(C)(C)C)ccc3[nH]2)C1")
97.6
>>> numeric_value("O=C1CCC[C@@H]2[C@H]3CCCN4CCC[C@@H](CN12)[C@@H]34")
83.7

Requested read-out: cell viability. Entry: `CCOC(=O)N1c2ccc(C(F)(F)F)cc2[C@@H](N(Cc2cc(C(F)(F)F)cc(C(F)(F)F)c2)C(=O)OC)C[C@H]1CC`
127

Try this compound too: `O=S(=O)([O-])CCS.[Na+]`
131

And for `CC[C@@H]1[C@@H](C)O[C@@](O)([C@@H](C)[C@H](O)[C@H](C)[C@H]2OC(=O)/C=C/C=C/[C@H](C)[C@@H]([C@@H](C)[C@@H](O)[C@H](C)[C@@]3(O)C[C@@H](O[C@H]4C[C@H](O)[C@H](O)[C@H](C)O4)[C@H](CC)[C@@H](C)O3)OC(=O)/C=C/C=C/[C@@H]2C)C[C@H]1O[C@H]1C[C@H](O)[C@H](O)[C@H](C)O1` ?
127

Request: `CC(=O)N[C@@H]1[C@@H](NC(N)=N)\C=C(/O[C@H]1[C@H](O)[C@H](O)CO)C(O)=O`
107

###

- System: NOMO1
- EXPERIMENTAL_DETAILS: cell viability relative to DMSO control; higher = less cytotoxic
- RUN_CONDITIONS: RPMI 5 mM glucose + 10% FBS; 48 h; 5.12 µM
Rule: cell viability below 90% gives True. Equal to or above 90% gives False.

>>> class_name("CC(=O)OC[C@H]1O[C@@H]([S-])[C@H](OC(C)=O)[C@@H](OC(C)=O)[C@@H]1OC(C)=O.CCP(CC)CC.[Au+]")
"True"
>>> class_name("COc1ccc(C(CN(C)C)C2(O)CCCCC2)cc1 (stereo not given)")
"False"
>>> class_name("NC[C@@H]1O[C@H](O[C@H]2[C@@H](O)[C@H](O[C@@H]3[C@@H](O)[C@H](N)C[C@H](N)[C@H]3O[C@H]3O[C@H](CN)[C@@H](O)[C@H](O)[C@H]3N)O[C@@H]2CO)[C@H](N)[C@@H](O)[C@@H]1O.O=S(=O)(O)O.O=S(=O)(O)O.O=S(=O)(O)O")
"True"
>>> class_name("O=C1\\C=C/C=C2/[C@H]3CNC[C@H](C3)CN12")
"False"
>>> class_name("CCc1cc2c(cc1N1CCC(N3CCOCC3)CC1)C(C)(C)c1[nH]c3cc(C#N)ccc3c1C2=O")
"False"

Please let me know if `CCOC(=O)N1c2ccc(C(F)(F)F)cc2[C@@H](N(Cc2cc(C(F)(F)F)cc(C(F)(F)F)c2)C(=O)OC)C[C@H]1CC` shows cell viability below 90%.
False

Item: `COc1cccc2c1C(=O)c1c(O)c3c(c(O)c1C2=O)C[C@@](O)(C(=O)CO)C[C@@H]3O[C@H]1C[C@H](N)[C@H](O[C@H]2CCCCO2)[C@H](C)O1`
True

Another compound to look at: `C/C(=N\NC(=S)N1CCC1)c1ccccn1`
True

Item: `O=C(CCCCCCC(=O)Nc1cccnc1)NO`
True

Follow-up entry: CCC(C)N1\N=C/N(C1=O)C2=CC=C(C=C2)N3CCN(CC3)C4=CC=C(OC[C@H]5CO[C@@](C[N]6C=NC=N6)(O5)C7=CC=C(Cl)C=C7Cl)C=C4 (stereo not given in full)
False

Request: `CC(C)(F)C[C@H](N[C@@H](c1ccc(-c2ccc([S+](C)(=O)[O-])cc2)cc1)C(F)(F)F)C(=O)NC1(C#N)CC1`
False

Entry `C[N]1C=C(C2=CC=CC=C12)\C3=C(\C(=O)NC3=O)C4=C[N](C5CCN(CC5)CC6=NC=CC=C6)C7=C4C=CC=C7` please
False

Now the same for `Cc1nn(C)c(COc2ccc(N3CCN([S+](=O)([O-])N(C)C)CC3)cc2)c1-c1cccc2c(CCCOc3cccc4ccccc34)c(C(=O)O)n(CCN3CCOCC3)c12`
True

###

- Tested on: SEM cells
- EXPERIMENTAL_DETAILS: cell viability relative to DMSO control; higher = less cytotoxic
- RUN_CONDITIONS: HPLM + 10% dialyzed FBS; 48 h; 0.00702 µM
# key: entry, value: cell viability
Give just the number in %; leave the unit off.

Example entries begin here.
>>> numeric_value("Cc1nc2cc(C(=O)N3CCC4(CC3)CC(=O)c3c(cnn3C(C)C)C4)ccc2[nH]1")
94.6
>>> numeric_value("N\\C1=N\\C2=C(N=C[N]2COCCO)C(=O)N1")
97.2
>>> numeric_value("CCN1C[C@H](C)[N]2C(=C(O)C3=C2\\C(=N/N(CC4=CC=C(F)C(=C4)Cl)C3=O)C(=O)NC)C1=O")
105
>>> numeric_value("OC1=CC=C(C=C1)\\C2=C\\OC3=C(C(=CC(=C3)O)O)C2=O")
96.8
>>> numeric_value("CCN(CC)CCOc1ccc(Cc2ccccc2)cc1")
110
>>> numeric_value("NC(=O)Nc1sc(-c2ccc(F)cc2)cc1C(N)=O")
115
>>> numeric_value("O=C(O)CCCCC(CCSCc1ccccc1)SCc1ccccc1 (stereo not drawn)")
111
>>> numeric_value("N#CC(c1ccnc(NCCc2cccnc2)n1)c1nc2ccccc2s1 (stereo not drawn)")
118
>>> numeric_value("COc1cc([C@@H](CC(=O)O)c2ccc(C)c(CN3C[C@@H](C)Oc4ccccc4[S+]3(=O)[O-])c2)cc2nnn(C)c12")
104
>>> numeric_value("CC1=C(/C=C/C(C)=C/C=C/C(C)=C\\C(=O)O)C(C)(C)CCC1")
67.9

cell viability lookup needed for `O=S(=O)([O-])CCS.[Na+]` , thanks.
100

What would you report for `COc1cc2ncn(-c3cc(OCc4ccccc4[S+](C)(=O)[O-])c(C#N)s3)c2cc1OC` ?
90.9

Note, next up: O=C(CS(=O)Cc1ccco1)NC/C=C\COc1cc(CN2CCCCC2)ccn1 (stereo not drawn)
89.4
